# test.target: Histone-lysine N-methyltransferase NSD2 (Homo sapiens)
# method.notes: NSD2 methyltransferase inhibitors, dose response, biochemical, AlphaScreen, cherry-picked samples (AID 1053173)
# condition.notes: NSD2 H4 peptide methylation, 120 min; series mostly up to 10 µM
Among all 1,500 compounds or so, about 390 (26%) were called active. These entries were drawn from the full list. Potency and affinity values are given separately.
readout.label: outcome

> print(dat)
                                   compound                               test.target  value.reported
1  COc1cc(C(=O)NC2CCCc3ccccc32)cc(OC)c1OC (stereo unspecified)  Histone-lysine N-methyltransferase NSD2 (Homo sapiens)        inactive
2  NC(=O)C1Cc2ccccc2CN1S(=O)(=O)c1ccc(Cl)s1 (stereo unspecified)  Histone-lysine N-methyltransferase NSD2 (Homo sapiens)        inactive
3  CC1CCCCC1NC(=O)COC(=O)c1ccc2c(=O)n3c(nc2c1)CCC3 (stereo unspecified)  Histone-lysine N-methyltransferase NSD2 (Homo sapiens)        inactive
4  CC(=O)Nc1ccc(N(C(=O)CNC(=O)c2ccco2)C(C(=O)NCC2CCCO2)c2ccccc2)cc1 (stereo unspecified)  Histone-lysine N-methyltransferase NSD2 (Homo sapiens)        inactive
5               O=C(Nc1nccs1)c1ccc2nccnc2c1  Histone-lysine N-methyltransferase NSD2 (Homo sapiens)        inactive

### Prompt I am curious: what outcome value has been reported for C/C(NCCc1ccccc1)=C1/CCOC1=O ?
### Response inactive

### Prompt CCCCN1C(=O)C(=Nc2cccc3cnccc23)c2ccccc21 , same question.
### Response inactive

### Prompt And COc1cccc(C(C(=O)NC2CCCC2)N(C(=O)c2csnn2)C2CC2)c1 (stereo unspecified) ?
### Response inactive

### Prompt For Cc1ccc(NC(=O)CCN2CCN(C/C=C/c3ccccc3)CC2)cc1C then?
### Response inactive

### Prompt Try CCOc1cc(N2CCOCC2)c(OCC)cc1NC(C)C(=O)N1CCN(CC)CC1 (stereo unspecified) next.
### Response inactive

### Prompt Another compound: CC(=O)N1C2CCCCC2S[C@H]2CCCCC21 (stereo partly specified)
### Response inactive

* * *

# test.target: Histone-lysine N-methyltransferase NSD2 (Homo sapiens) (UniProt O96028)
# Sequence (O96028 whole entry, looked up): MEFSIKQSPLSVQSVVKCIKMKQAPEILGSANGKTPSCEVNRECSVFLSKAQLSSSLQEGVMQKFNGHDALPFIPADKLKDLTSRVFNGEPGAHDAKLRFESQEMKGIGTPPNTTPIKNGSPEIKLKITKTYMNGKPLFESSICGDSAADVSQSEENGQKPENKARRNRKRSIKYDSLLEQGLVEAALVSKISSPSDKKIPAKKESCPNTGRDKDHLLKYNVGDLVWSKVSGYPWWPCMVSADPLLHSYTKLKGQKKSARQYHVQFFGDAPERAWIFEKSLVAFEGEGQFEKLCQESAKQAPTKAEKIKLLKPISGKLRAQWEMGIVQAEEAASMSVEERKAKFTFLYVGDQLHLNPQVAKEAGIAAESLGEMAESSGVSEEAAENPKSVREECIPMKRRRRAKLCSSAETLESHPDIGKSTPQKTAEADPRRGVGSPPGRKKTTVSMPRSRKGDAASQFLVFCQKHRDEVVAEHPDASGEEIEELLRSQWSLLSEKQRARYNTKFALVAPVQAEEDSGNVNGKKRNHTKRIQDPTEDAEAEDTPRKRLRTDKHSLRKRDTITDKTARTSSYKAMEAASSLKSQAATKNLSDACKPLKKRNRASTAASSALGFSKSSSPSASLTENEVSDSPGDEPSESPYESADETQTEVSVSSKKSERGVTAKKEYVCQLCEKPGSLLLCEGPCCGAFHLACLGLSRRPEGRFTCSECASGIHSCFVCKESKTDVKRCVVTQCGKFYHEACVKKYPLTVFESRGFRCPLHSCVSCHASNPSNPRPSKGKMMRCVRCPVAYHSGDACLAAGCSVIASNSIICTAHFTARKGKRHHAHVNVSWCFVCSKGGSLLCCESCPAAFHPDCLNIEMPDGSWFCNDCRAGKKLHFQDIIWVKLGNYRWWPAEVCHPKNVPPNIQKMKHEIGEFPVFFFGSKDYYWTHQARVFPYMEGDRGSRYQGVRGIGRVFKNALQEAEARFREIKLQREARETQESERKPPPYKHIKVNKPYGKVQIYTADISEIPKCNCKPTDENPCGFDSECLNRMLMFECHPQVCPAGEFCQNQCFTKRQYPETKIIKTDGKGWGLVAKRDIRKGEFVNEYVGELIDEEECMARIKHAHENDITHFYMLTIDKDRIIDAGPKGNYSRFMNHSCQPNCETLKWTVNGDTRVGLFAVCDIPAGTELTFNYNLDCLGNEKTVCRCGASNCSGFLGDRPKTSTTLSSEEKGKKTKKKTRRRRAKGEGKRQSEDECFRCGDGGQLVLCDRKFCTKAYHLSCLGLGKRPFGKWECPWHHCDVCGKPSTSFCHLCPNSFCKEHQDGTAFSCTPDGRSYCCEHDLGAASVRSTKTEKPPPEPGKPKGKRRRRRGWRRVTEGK
# method.notes: NSD2 methyltransferase inhibitors, dose response, biochemical, AlphaScreen, cherry-picked samples (AID 1053173)
# condition.notes: NSD2 H4 peptide methylation, 120 min; series mostly up to 10 µM
Screen size: about 1,500 compounds; about 390 (26%) were called active. Only a sample is shown. Entries with a potency or affinity are not part of this list.
readout.label: outcome

Some molecules with recorded outcome:
> print(dat)
                                   molecule  readout.label  value.reported
1          Cc1ccc(NC(=S)Nc2cccc3cnccc23)cc1        outcome        inactive
2  Cc1ccc(S(=O)(=O)NC(C(=O)N2CCN(S(=O)(=O)c3cccc(F)c3)CC2)C(C)C)cc1 (stereo unspecified)        outcome        inactive
3  Cc1cc(OCC(=O)Nc2ccccc2N2CCCCC2)ccc1C(C)C        outcome        inactive
4  CCN1CCN(CCCNC(=O)c2ccc3c(c2)NC(=O)/C(=C\c2cccc(C)c2)S3)CC1        outcome        inactive
5  COc1ccc(C(=O)N(Cc2cccs2)C2CCS(=O)(=O)C2)cc1 (stereo unspecified)        outcome        inactive
6  COc1ccccc1NC1C=CS(=O)(=O)C1 (stereo unspecified)        outcome        inactive
7                 Cc1ccc(CC(=O)Nc2nncs2)cc1        outcome        inactive
8  COc1cc(NC(=O)c2ccccc2)c(OC)cc1NC(=O)CSc1[nH]c(=O)cc(C)c1C#N        outcome        inactive

### Prompt Looking for the measured outcome of CN1C(=O)C(=O)/C(=C(/O)c2ccccc2)C1c1ccccc1 (stereo unspecified) , can you help?
### Response inactive

### Prompt // query: CCOc1ccc(NC(=S)N2CCC(NC(=O)C3CCCCC3)CC2)cc1
### Response inactive

### Prompt Another: Cc1cc(NC(=O)COC(=O)c2cccc(S(=O)(=O)N3CCOCC3)c2)no1
### Response inactive

* * *

# test.target: Histone-lysine N-methyltransferase NSD2 (Homo sapiens) (UniProt O96028)
# method.notes: NSD2 methyltransferase inhibitors, dose response, biochemical, AlphaScreen, cherry-picked samples (AID 1053173)
# condition.notes: NSD2 H4 peptide methylation, 120 min; series mostly up to 10 µM
The whole screen tested about 1,500 compounds, of which about 390 (26%) were called active. Only a sample is shown. Results with a measured potency or affinity are listed apart.
readout.label: outcome

Worked cases, outcome given:
> print(dat)
                            smiles.notation  value.reported
1      CSc1nsc(SCC(=O)Nc2cccc(NC(C)=O)c2)n1        inactive
2  COc1ccc(C(=O)OCC(=O)Nc2c(C)n(C)n(-c3ccccc3)c2=O)cc1        inactive
3  Cc1cccc2c(=O)c(C(=O)NCc3ccc(F)cc3)c[nH]c12        inactive
4         CC12CCC(C)(c3nc4ccccc4nc31)C2(C)C        inactive
5         C/C(=C\C(=O)c1cccnc1)Nc1ccc(O)cc1        inactive

### Prompt What measured outcome is associated with CC(=O)Nc1cccc(C(=O)OCc2ccccc2)c1 on Histone-lysine N-methyltransferase NSD2 (Homo sapiens) (UniProt O96028)?
### Response inactive

* * *

# test.target: Histone-lysine N-methyltransferase NSD2 (Homo sapiens) (UniProt O96028)
# method.notes: NSD2 methyltransferase inhibitors, dose response, biochemical, AlphaScreen, cherry-picked samples (AID 1053173)
# condition.notes: NSD2 H4 peptide methylation, 120 min; series mostly up to 10 µM
The whole screen tested about 1,500 compounds, of which about 390 (26%) were called active. Not all results are given here. Potency and affinity values are given separately.
readout.label: outcome

Here's what some known entries look like.
> print(dat)
                                   compound                               test.target  value.reported
1  COc1ccc(-n2nnnc2-c2cnc(N3CCCC3)nc2C(F)(F)F)cc1  Histone-lysine N-methyltransferase NSD2 (Homo sapiens) (UniProt O96028)        inactive
2  CCN(CC)C(=O)C1CCCN(Cc2ccc(OC)c(C)c2C)C1 (stereo unspecified)  Histone-lysine N-methyltransferase NSD2 (Homo sapiens) (UniProt O96028)        inactive
3         Cc1ccc(C(=O)Nc2ccc(CC(=O)O)cc2)o1  Histone-lysine N-methyltransferase NSD2 (Homo sapiens) (UniProt O96028)        inactive
4  CC1CC(C)CN(C(=O)C2CCN(S(=O)(=O)c3cccs3)CC2)C1 (stereo unspecified)  Histone-lysine N-methyltransferase NSD2 (Homo sapiens) (UniProt O96028)        inactive
5  Nc1nonc1C(=O)N/N=C/c1cc2c(cc1[N+](=O)[O-])OCO2  Histone-lysine N-methyltransferase NSD2 (Homo sapiens) (UniProt O96028)        inactive
6  Cc1cccn2c(=O)c3cc(C(=O)NCCCn4ccnc4)n(C)c3nc12  Histone-lysine N-methyltransferase NSD2 (Homo sapiens) (UniProt O96028)        inactive
7  Cc1c(C(=O)c2no[n+]([O-])c2C(=O)c2cnn(C)c2C)cnn1C  Histone-lysine N-methyltransferase NSD2 (Homo sapiens) (UniProt O96028)        inactive
8         O=C(CSc1ccc(-c2cccnc2)nn1)N1CCCC1  Histone-lysine N-methyltransferase NSD2 (Homo sapiens) (UniProt O96028)        inactive

### Prompt Looking for the measured outcome of CCOC(=O)Nc1ccc(=O)n(Cc2c(Cl)cccc2Cl)c1 , can you help?
### Response inactive

### Prompt Ok, now O=C1C(=Cc2ccco2)CCC1=Cc1ccco1
### Response inactive

### Prompt What do you have for Cc1ccc(C(=O)Cn2cc([N+](=O)[O-])nc2C)cc1 ?
### Response inactive

* * *

# test.target: Histone-lysine N-methyltransferase NSD2 (Homo sapiens)
# method.notes: NSD2 methyltransferase inhibitors, dose response, biochemical, AlphaScreen, cherry-picked samples (AID 1053173)
# condition.notes: NSD2 H4 peptide methylation, 120 min; series mostly up to 10 µM
In all, about 1,500 compounds went through this assay and about 390 (26%) were called active. A selection follows. Entries with a potency or affinity are not part of this list.
readout.label: outcome

Answered cases to consult:
> print(dat)
                                   molecule  value.reported
1    COc1ccc(/C=C(\C#N)C(=O)N2COCC2(C)C)cc1        inactive
2                  N#CCC(=O)c1sccc1-n1cccc1        inactive
3    O=C(CNC(=O)c1ccco1)NCC(=O)OCc1ccccc1Cl        inactive
4          COc1ccc2c(c1)Cc1sc(NC(C)=O)nc1-2        inactive
5  CC(C)CC(=O)N1CCC(O)(CS(=O)(=O)Cc2ccccc2Cl)CC1        inactive

### Prompt So what does the record say about outcome for O=C(CC(=O)NCCc1ccccc1)NCCc1ccccc1 ?
### Response inactive

### Prompt Then what about the molecule COc1ccccc1C(=O)NNC(=O)Cc1ccccc1 ?
### Response inactive

### Prompt Another molecule to check: Cc1cccc(N2CCN(S(=O)(=O)c3c(C)nc4scc(C)n4c3=O)CC2C)c1 (stereo unspecified)
### Response inactive

### Prompt Try the molecule CC(C)(C)NC(=O)C(c1ccco1)N(C(=O)Cn1nnc(-c2ccc(F)cc2)n1)c1ccccc1F (stereo unspecified)
### Response inactive

### Prompt And what about the molecule O=C(COc1ncnc2c(Cl)cc(Cl)cc12)N1CCCCC1 ?
### Response inactive

### Prompt Entry CCN1CCN(c2ncnc3scc(-c4ccc(OC)cc4)c23)CC1 please
### Response inactive
